Measured on: α1d (rat receptor expressed in mouse fibroblasts) (Rattus norvegicus)
Construct: expressed in transfected cells; host or cells: mouse fibroblasts
Sequence (P23944 whole entry): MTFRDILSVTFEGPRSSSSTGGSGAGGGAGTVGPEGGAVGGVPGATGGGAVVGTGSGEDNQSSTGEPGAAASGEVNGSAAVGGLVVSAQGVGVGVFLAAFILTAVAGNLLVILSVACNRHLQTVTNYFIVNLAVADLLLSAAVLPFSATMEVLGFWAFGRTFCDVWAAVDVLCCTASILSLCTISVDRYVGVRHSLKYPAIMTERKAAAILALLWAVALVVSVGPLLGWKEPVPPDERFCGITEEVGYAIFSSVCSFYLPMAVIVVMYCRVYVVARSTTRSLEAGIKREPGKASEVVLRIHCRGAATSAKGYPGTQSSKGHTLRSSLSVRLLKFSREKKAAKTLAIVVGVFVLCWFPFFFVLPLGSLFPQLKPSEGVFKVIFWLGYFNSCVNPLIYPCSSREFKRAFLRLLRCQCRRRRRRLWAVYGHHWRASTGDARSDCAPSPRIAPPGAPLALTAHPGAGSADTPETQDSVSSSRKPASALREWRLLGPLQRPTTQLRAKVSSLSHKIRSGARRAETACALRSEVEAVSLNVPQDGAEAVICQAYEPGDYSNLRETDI
Assay overview: Radioligand binding with [3H]-prazosin, α1d
Details: rat receptor expressed in mouse fibroblasts, [3H]-prazosin; read-out: Radioligand Binding Ki α1d (Rat)
Counter-ions that a name gives are not always drawn.
Parameter: pKi
Give bare numbers, as −log10 of the molar value.

Study these solved cases before continuing.
CS(=O)(=O)Nc1ccc(Cl)c2c1CCCC2c1c[nH]cn1 (stereo not drawn) [Example 43, maleate]; 5.54
Cl.Cn1cnc(C2CCCc3c(NS(C)(=O)=O)cccc32)c1 (stereo not drawn) [Example 14, hydrochloride]; 5.98
CS(=O)(=O)Nc1cccc2c1CCCCC2c1c[nH]cn1 (stereo not drawn) [Example 38, maleate]; 5.60
O=S(=O)(Nc1cccc2c1CCCC2c1cnc[nH]1)c1cccc2cccnc12 (stereo not drawn); 5.65

Lab note: each molecule below needs its pKi filled in.
1. O=S(=O)(CCCCl)Nc1cccc2c1CCCC2c1cnc[nH]1 (stereo not drawn)
2. O=C(Nc1cccc2c1CCCC2c1c[nH]cn1)C(F)(F)F (stereo not drawn)
3. CCS(=O)(=O)Nc1cccc2c1CCCC2c1c[nH]cn1.O=C(O)/C=C\C(=O)O (stereo not drawn) [Example 12, maleate]
4. Cc1nc(C2CCCc3c2ccc(O)c3NS(C)(=O)=O)c[nH]1 (stereo not drawn) [Example 3, hydrochloride]
5. Cc1ccc(NS(C)(=O)=O)c2c1C(c1c[nH]cn1)CCC2 (stereo not drawn) [Example 23, maleate]

OUTPUT:
5.28
5.48
5.78
5.08
5.57

----------
Measured on: α1A (rat submaxillary gland) (Rattus norvegicus, UniProt P43140)
Construct: α1A (rat submaxillary gland); from tissue; host or cells: rat submaxillary gland
Sequence (P43140 1-466): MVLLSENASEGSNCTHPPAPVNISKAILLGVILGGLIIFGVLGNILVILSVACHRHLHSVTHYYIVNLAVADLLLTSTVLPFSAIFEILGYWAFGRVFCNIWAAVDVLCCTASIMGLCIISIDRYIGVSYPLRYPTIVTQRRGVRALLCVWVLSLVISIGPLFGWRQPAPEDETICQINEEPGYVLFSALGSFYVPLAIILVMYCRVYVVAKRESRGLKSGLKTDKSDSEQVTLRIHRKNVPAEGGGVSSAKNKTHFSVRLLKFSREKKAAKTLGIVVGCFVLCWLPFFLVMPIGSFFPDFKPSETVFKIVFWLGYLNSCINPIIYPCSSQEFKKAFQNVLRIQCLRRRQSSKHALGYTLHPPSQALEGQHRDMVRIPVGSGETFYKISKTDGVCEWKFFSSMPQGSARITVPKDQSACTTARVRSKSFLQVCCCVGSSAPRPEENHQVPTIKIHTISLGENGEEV
Assay overview: Radioligand binding with [3H]-prazosin, α1A
Details: rat submaxillary gland, [3H]-prazosin
Where a name gives a salt, the structure may show the parent alone.
For each record, write down the corresponding pKi.
One number for each entry, as −log10 of the molar value.

Study these solved cases before continuing.
CCS(=O)(=O)Nc1cccc2c1CCCCC2c1c[nH]cn1 (stereo not drawn) [Example 40, maleate]; 5.87
Cc1nn(C)c(Cl)c1S(=O)(=O)Nc1cccc2c1CCCC2c1cnc[nH]1 (stereo not drawn); 5.30
CS(=O)(=O)Nc1ccc(F)c2c1CCCC2c1c[nH]cn1.O=C(O)/C=C\C(=O)O (stereo not drawn) [Example 44, maleate]; 6.51
O=C(O)/C=C\C(=O)O.O=S(=O)(CC(F)(F)F)Nc1cccc2c1CCCC2c1c[nH]cn1 (stereo not drawn) [Example 20, maleate]; 6.60
CCS(=O)(=O)Nc1cccc2c1CCCC2c1c[nH]cn1.O=C(O)/C=C\C(=O)O (stereo not drawn) [Example 12, maleate]; 7.02
CS(=O)(=O)Nc1ccc(F)c(Cc2c[nH]cn2)c1 [Example 41, maleate]; 6.12
CCC(O)(c1cccc(NS(=O)(=O)CC)c1)c1c[nH]cn1 (stereo not drawn); 5.44
Cc1noc(C)c1S(=O)(=O)Nc1cccc2c1CCCC2c1cnc[nH]1 (stereo not drawn); 5.81
CN(c1cccc2c1CCCC2c1c[nH]cn1)S(C)(=O)=O (stereo not drawn); 6.69
O=S(=O)(Nc1cccc2c1CCCC2c1cnc[nH]1)c1cccc2cccnc12 (stereo not drawn); 5.99

Lab note: each compound below needs its pKi filled in.
1. Cc1nc(C2CCCc3c2ccc(O)c3NS(C)(=O)=O)c[nH]1 (stereo not drawn) [Example 3, hydrochloride]
2. CCS(=O)(=O)Nc1cccc(Cc2c[nH]cn2)c1.O=C(O)/C=C\C(=O)O [Example 30, maleate]
3. CS(=O)(=O)Nc1cccc2c1CCCCC2c1c[nH]cn1 (stereo not drawn) [Example 38, maleate]
4. CCS(=O)(=O)Nc1cccc2c1CCCC2c1c[nH]cn1.O=C(O)/C=C\C(=O)O (single isomer, unassigned; (+)) [Example 33, maleate]

OUTPUT:
1. 6.00
2. 6.87
3. 5.87
4. 7.33

Lab note: each compound below needs its pKi filled in.
1. O=C(O)C=CC(=O)O.O=S(=O)(Nc1cccc2c1CCCC2c1c[nH]cn1)C1CC1 (stereo not drawn) [Example 27, maleate]
2. CCCS(=O)(=O)Nc1cccc2c1CCCC2c1c[nH]cn1 (stereo not drawn)
3. Cl.Cn1cnc(C2CCCc3c(NS(C)(=O)=O)cccc32)c1 (stereo not drawn) [Example 14, hydrochloride]

OUTPUT:
[6.27, 5.76, 6.56]

Lab note: each compound below needs its pKi filled in.
1. COc1ccc(NS(C)(=O)=O)c2c1C(c1c[nH]cn1)CCC2 (stereo not drawn)
2. CC(=O)Nc1nc(C)c(S(=O)(=O)Nc2cccc3c2CCCC3c2cnc[nH]2)s1 (stereo not drawn)
3. CCS(=O)(=O)Nc1ccc(OC)c2c1CCCC2c1c[nH]cn1.O=C(O)C=CC(=O)O (stereo not drawn) [Example 25, maleate]
4. CCS(=O)(=O)Nc1ccc(Cl)c2c1CCCC2c1c[nH]cn1 (stereo not drawn) [Example 42, maleate]

OUTPUT:
[5.77, 5.49, 5.61, 6.44]
